Here the recorded FACS signal is given for each entry.
- System Tested: T1, human CLDN6, endogenously expressed on cancer cell lines (human, UniProt P56747 1-220)
- T1 construct: also called Endogenous CLDN6+; CLDN6 on ARK2, OVCA429, UMUC4 cells
- T1 sequence: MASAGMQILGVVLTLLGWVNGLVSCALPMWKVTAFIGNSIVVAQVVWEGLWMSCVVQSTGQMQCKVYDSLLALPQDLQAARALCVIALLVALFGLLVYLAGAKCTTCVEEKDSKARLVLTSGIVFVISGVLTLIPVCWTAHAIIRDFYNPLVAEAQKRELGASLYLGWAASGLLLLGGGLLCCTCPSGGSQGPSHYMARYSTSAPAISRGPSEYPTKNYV
- Procedure Text: FACS, ARK2 cells, 1.5 ug Ab
Note: the reply should be a number with no unit written.

Past entries and their recorded results:
INSERT INTO assay_data (binder, measured) VALUES
  ('AB4-5 (antibody, V domains shown, Humanized; also called humanized AB 4-5) VH: QVQLVQSGAEVKKPGASVKMSCKASGYTFTSYTMHWIRQAPGQGQEWIGYINPSSTYTHYAQKFQGRATLTADTSTSTAYMELSSLRSEDTAVYYCSRGELGGFAYWGQGTLVTVSS VL: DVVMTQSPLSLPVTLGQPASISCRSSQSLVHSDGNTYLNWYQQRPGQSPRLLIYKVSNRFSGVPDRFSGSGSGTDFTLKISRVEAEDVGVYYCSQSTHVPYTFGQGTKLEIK', 1200),
  ('AB4-7 (antibody, V domains shown, Humanized; also called humanized AB 4-7) VH: QVQLVQSGAEVKKPGASVKMSCKASGYTFTSYTMHWIRQAPGQGQEWIGYINPSSTYTHYAQKFQGRATLTADKSTSTAYMELSSLRSEDTAVYYCSRGELGGFAYWGQGTLVTVSS VL: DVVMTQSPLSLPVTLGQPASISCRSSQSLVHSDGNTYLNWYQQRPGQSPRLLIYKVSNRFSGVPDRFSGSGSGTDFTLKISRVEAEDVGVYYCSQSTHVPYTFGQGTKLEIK', 7560);

Consider the record given below.
input: Input AB4-8 (antibody, V domains shown, Humanized; full-length IgG; also called humanized AB 4-8) VH: QVQLVQSGAEVKKPGASVKVSCKASGYTFTSYTMHWVRQAPGQGLEWMGYINPSSTYTHYIKKFKDRVTMTADTSTSTVYMELSSLRSEDTAVYYCSRGELGGFAYWGQGTLVTVSS VL: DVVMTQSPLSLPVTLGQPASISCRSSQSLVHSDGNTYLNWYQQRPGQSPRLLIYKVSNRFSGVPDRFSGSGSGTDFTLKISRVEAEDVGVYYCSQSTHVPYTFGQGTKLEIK , output reported FACS signal.
output: 7310
